test-method-notes: Metabolic stability in rat hepatocytes
Format: in vitro ADME
conditions: male, Wistar, freshly isolated rat hepatocytes in suspension, 10^6 cells/ml, analysed over 24 h, read-out: T½ (converted)
measured-quantity: half-life

compound="CC[C@H](C)[C@H](NC(C)C)C(=O)N[C@H](C(=O)N1CCC[C@H]1C(N)=O)[C@@H](C)CC [N-Isopropyl-Ile-Ile-ProNH2]" value_observed="2.6 h"
